Please provide measured interaction score for the entries that follow.
tested_target: T1, AP2-AA
T1 chain: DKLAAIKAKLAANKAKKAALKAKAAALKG
measurement_protocol: two-hybrid library CCmax;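 also: natural log of median RNA to DNA barcode read ratio; higher means stronger binding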
Answers are plain numbers.

For orientation, consider the following solved cases.
binder	quantitative_result
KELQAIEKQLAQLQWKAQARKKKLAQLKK [4H_APH]	-1.63
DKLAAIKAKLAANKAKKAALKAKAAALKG [AP2-AA]	-2.11
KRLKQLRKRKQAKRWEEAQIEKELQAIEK [4H_APH2]	-2.23
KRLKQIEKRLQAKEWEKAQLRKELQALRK [4H_APH4]	-2.2

GET /value?item= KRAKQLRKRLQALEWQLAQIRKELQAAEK [4H_APH3] &field=interaction score returns -1.83
